The following compounds are listed with their measured pIC50 values.
Molecular target: BRG-1 (Homo sapiens, UniProt P51532)
Construct: made in house; host or cells: High Five insect cells
Sequence (P51532 whole entry): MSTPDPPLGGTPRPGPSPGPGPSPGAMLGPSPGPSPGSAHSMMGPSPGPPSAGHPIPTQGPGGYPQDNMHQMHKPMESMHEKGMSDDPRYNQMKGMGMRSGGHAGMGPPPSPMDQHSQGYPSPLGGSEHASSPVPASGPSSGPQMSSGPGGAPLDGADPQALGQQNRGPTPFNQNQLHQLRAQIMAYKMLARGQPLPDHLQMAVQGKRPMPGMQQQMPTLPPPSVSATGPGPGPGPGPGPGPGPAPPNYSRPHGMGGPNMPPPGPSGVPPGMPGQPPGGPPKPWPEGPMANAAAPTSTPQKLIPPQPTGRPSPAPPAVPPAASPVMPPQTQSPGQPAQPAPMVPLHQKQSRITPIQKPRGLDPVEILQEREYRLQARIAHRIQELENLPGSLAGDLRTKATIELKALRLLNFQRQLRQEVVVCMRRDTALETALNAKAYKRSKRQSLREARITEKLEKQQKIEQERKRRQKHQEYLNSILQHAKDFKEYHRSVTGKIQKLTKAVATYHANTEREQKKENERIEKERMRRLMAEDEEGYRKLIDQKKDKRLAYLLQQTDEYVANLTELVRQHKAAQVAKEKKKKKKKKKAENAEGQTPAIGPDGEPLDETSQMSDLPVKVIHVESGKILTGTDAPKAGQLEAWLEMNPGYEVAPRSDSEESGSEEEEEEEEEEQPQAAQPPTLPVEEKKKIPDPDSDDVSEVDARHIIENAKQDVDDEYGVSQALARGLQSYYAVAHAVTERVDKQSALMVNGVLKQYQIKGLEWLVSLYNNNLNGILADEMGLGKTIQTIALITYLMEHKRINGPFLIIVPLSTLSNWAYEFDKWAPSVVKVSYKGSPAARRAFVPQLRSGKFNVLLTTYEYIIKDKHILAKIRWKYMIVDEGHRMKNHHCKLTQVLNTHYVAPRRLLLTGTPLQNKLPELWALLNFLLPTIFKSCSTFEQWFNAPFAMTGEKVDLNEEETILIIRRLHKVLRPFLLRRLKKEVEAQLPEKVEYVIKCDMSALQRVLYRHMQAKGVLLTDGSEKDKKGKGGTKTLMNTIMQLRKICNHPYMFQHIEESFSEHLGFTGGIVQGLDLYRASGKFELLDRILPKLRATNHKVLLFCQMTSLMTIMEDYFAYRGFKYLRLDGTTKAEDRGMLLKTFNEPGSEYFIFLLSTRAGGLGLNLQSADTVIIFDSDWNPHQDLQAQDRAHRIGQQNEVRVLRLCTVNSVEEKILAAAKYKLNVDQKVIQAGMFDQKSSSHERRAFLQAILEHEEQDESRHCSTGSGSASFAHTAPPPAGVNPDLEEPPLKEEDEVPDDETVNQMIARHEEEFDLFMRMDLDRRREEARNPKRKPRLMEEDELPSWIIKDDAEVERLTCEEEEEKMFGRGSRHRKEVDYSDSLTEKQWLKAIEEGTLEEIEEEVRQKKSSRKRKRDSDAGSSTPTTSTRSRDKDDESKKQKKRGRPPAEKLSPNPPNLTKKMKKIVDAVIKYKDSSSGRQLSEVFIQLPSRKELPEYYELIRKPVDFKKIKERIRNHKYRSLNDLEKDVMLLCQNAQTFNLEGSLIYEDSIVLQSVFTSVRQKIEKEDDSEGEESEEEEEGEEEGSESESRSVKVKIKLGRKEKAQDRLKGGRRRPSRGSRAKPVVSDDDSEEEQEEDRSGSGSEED
Assay: ATPase catalytic activity of BRG-1, ADP-Glo in vitro biochemical assay
Conditions: ATPase catalytic activity, ADP-Glo; 30 nM BRG-1, 400 μM ATP; read-out: BRG1 IC50
Would you please state pIC50, meaning minus log10 of the concentration in mol/L, as a bare number?

Recorded results for 5 compounds are shown here.
>>> reported("C[C@H]1CN(c2cccc(-c3ccc4cnc(CNC(=O)c5ccc(Cl)c(S(C)(=O)=O)c5)cc4n3)n2)CC[C@@H]1O")
7.08
>>> reported("C[C@@H]1CN(c2cccc(-c3ccc4cnc(CNC(=O)c5cc6c(cc5F)COCCS6(=O)=O)cc4n3)n2)C[C@H](C)O1")
7.71
>>> reported("COC[C@@H](C)Oc1ccc2c(c1)N(c1ccc3cnc(CNC(=O)c4ccc5c(c4)S(=O)(=O)CCOC5)cc3n1)CCC2")
6.89
>>> reported("C[C@@H]1CCN(C)c2nc(-c3ccc4cnc(CNC(=O)c5ccc6c(c5)S(=O)(=O)CCOC6)cc4n3)ccc21")
6.38
>>> reported("CCOc1nc(-c2ccc3cnc(CNC(=O)c4ccc5c(c4)S(=O)(=O)[C@@H](C)COC5)cc3n2)ccc1F")
6.39

Switching to the query record.
Can you share its pIC50? I mean this compound: `C[C@@H]1CN(c2cccc(-c3ccc4cnc(CNC(=O)c5ccc6c(c5)S(=O)(=O)[C@@H](C)C6)cc4n3)n2)C[C@H](C)O1`
5.45

###

Molecular target: BRM (Homo sapiens)
Construct: made in house; host or cells: High Five insect cells
Assay: ATPase catalytic activity of BRM, ADP-Glo in vitro biochemical assay
Conditions: ratio BRG1 IC50 / BRM IC50
The following compounds are listed with their measured Ratio* values.
Could you respond with only the numeric value?

Can you share its Ratio*? I mean this compound: `C[C@@H]1CN(c2ccnc(-c3ccc4cnc(CNC(=O)c5ccc6c(c5)S(=O)(=O)CCOC6)cc4c3)n2)C[C@H](C)O1`
4.84

Can you share its Ratio*? I mean this compound: `CC1(C)CCN(c2ccc3cnc(CNC(=O)c4ccc5c(c4)S(=O)(=O)CCOC5)cc3n2)c2ncccc21`
3.68

Can you share its Ratio*? I mean this compound: `Cc1ncnc2c1CCCN2c1ccc2cnc(CNC(=O)c3ccc4c(c3)S(=O)(=O)CCOC4)cc2n1`
10.10

Can you share its Ratio*? I mean this compound: `O=C(NCc1cc2nc(N3CCOc4cc(N5CCCC5)cnc43)ccc2cn1)c1ccc2c(c1)S(=O)(=O)CCOC2`
10.04

###

Target: BRM (Homo sapiens, UniProt P51531)
Construct: made in house; host or cells: High Five insect cells
Sequence (P51531 whole entry): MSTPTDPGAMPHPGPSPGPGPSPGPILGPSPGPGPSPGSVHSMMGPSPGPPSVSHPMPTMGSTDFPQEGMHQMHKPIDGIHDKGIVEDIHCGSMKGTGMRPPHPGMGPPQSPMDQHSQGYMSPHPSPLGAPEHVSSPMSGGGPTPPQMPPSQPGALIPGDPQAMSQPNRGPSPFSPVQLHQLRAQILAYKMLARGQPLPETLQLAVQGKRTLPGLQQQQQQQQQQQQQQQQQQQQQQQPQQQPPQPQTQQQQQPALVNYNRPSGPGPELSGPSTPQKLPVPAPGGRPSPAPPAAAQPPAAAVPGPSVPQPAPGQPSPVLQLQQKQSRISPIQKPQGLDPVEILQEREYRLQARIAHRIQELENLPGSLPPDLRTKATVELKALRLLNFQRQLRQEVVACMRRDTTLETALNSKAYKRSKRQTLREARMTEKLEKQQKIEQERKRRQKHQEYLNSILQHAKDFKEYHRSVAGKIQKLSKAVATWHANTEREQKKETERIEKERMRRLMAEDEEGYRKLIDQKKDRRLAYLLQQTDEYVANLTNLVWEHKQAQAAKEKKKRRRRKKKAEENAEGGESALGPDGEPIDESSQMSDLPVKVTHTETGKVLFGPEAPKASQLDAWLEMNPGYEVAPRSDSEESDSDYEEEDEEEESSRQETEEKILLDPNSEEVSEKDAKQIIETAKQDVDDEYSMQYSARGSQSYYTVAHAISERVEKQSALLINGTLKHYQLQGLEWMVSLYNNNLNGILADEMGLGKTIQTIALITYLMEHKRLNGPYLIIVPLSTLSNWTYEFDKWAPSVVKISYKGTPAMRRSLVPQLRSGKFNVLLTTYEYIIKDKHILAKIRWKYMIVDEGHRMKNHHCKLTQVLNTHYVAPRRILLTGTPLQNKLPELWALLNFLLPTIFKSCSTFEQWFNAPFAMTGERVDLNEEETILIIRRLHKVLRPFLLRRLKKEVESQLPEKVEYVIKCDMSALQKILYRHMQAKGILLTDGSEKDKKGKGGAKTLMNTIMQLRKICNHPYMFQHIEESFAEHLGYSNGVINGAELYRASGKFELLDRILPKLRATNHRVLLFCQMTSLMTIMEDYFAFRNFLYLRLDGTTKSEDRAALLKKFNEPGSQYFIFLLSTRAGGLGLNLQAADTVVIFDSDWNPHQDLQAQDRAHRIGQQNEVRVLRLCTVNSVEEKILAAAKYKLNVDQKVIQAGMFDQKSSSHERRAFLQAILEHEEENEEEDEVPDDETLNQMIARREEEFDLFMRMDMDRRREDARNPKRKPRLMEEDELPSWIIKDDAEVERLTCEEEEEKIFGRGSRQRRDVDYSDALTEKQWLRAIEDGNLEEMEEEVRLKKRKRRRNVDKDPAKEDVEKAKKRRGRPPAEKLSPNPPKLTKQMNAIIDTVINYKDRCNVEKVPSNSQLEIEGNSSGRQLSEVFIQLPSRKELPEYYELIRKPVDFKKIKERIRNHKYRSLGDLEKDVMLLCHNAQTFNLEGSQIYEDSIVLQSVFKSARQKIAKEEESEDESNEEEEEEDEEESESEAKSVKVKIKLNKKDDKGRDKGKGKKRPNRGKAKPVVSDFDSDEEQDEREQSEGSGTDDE
Assay: ATPase catalytic activity of BRM, ADP-Glo in vitro biochemical assay
Settings: ratio of BRG1 IC50 to BRM IC50
READOUT_KIND: Ratio*
Could you respond with only the numeric value?

>>> reported("C[C@@H]1CN(c2cccc(-c3ccc4cnc(CNC(=O)c5ccc6c(c5)S(=O)(=O)[C@H](C)CO6)cc4n3)n2)C[C@H](C)O1 [Compound 684]")
10.33
>>> reported("CC1CN(c2cccc(-c3ccc4cnc(CNC(=O)c5ccc6c(c5)S(=O)(=O)C(C)CN6C)cc4n3)n2)CC(C)O1 (stereo not shown) [Compound 567]")
16.28

Can you share its Ratio*? I mean this molecule: O=C(NCc1cc2nc(N3CCCc4ccc(OCC(F)F)nc43)ccc2cn1)c1ccc2c(c1)S(=O)(=O)CCOC2 [Compound 601]
8.88

Can you share its Ratio*? I mean this molecule: O=C(NCc1cc2nc(N3CCCc4ccc(OCC5CC5)nc43)ccc2cn1)c1ccc2c(c1)S(=O)(=O)CCOC2 [Compound 589]
13.88

###

The following molecules are listed with their measured Ratio* values.
Molecular target: BRM (Homo sapiens, UniProt P51531)
Construct: made in house; host or cells: High Five insect cells
Assay: ATPase catalytic activity of BRM, ADP-Glo in vitro biochemical assay
Details: ratio BRG1 IC50 / BRM IC50
Could you respond with only the numeric value?

>>> reported("O=C(NCc1cc2nc(N3CCCc4cc(F)c(OCC5COC5)cc43)ccc2cn1)c1ccc2c(c1)S(=O)(=O)CCOC2")
11.83
>>> reported("CN(c1cnc2c(c1)OCCN2c1ccc2cnc(CNC(=O)c3ccc4c(c3)S(=O)(=O)CCOC4)cc2n1)C1CCC1")
7.26
>>> reported("O=C(NCc1cc2nc(N3CCCc4ccc(C(F)CF)nc43)ccc2cn1)c1ccc2c(c1)S(=O)(=O)CCOC2 (stereo not drawn)")
17.84

Switching to the query record.
Query for BRM (Homo sapiens, UniProt P51531): what Ratio* does the record show for `O=C(NCc1cc2nc(N3CCOc4cc(C5(C(F)F)CC5)cnc43)ccc2cn1)c1ccc2c(c1)S(=O)(=O)CCOC2` ?
19.41

###

Molecular target: BRM (Homo sapiens)
Construct: made in house; host or cells: High Five insect cells
Test: ATPase catalytic activity of BRM, ADP-Glo in vitro biochemical assay
Details: ADP-Glo ATPase assay, 30 nM BRM, 400 μM ATP
The following molecules are listed with their measured pIC50 values.
Would you please state pIC50, meaning minus log10 of the concentration in mol/L, as a bare number?

Recorded results for 2 molecules are shown here.
>>> reported("CN(c1ccccn1)c1ccc2cnc(CNC(=O)c3ccc4c(c3)S(=O)(=O)CCOC4)cc2n1")
6.17
>>> reported("C[C@@H]1CN(c2cccc(-c3ccc4cnc(CNC(=O)c5cnc6c(c5)S(=O)(=O)[C@@H](C)COC6)cc4c3)n2)C[C@H](C)O1")
8.08

Can you share its pIC50? I mean this molecule: `COC[C@H](C)S(=O)(=O)c1cccc(C(=O)NCc2cc3nc(-c4cncc(C5CC5)n4)ccc3cn2)c1`
6.16

Can you share its pIC50? I mean this molecule: `CO[C@@H]1CCCN(c2cccc(-c3ccc4cnc(CNC(=O)c5ccc6c(c5)S(=O)(=O)CCOC6)cc4n3)n2)C1`
8.11

Can you share its pIC50? I mean this molecule: `COc1cc(C2CC2)nc2c1CCCN2c1ccc2cnc(CNC(=O)c3ccc4c(c3)S(=O)(=O)CCOC4)cc2n1`
7.98

Can you share its pIC50? I mean this molecule: `O=C(NCc1cc2cc(N3CCOc4ccc(C(F)F)nc43)ccc2cn1)c1ccc2c(c1)S(=O)(=O)CCOC2`
7.59

Can you share its pIC50? I mean this molecule: `Cc1nc(C)c2c(n1)N(c1ccc3cnc(CNC(=O)c4ccc5c(c4)S(=O)(=O)CCOC5)cc3n1)CCC2`
6.54

Can you share its pIC50? I mean this molecule: `CS(=O)(=O)c1cc(C(=O)NCc2cc3nc(-c4cccc(N5CC[C@H]6OCC[C@@H]6C5)n4)ccc3cn2)ccc1Cl`
7.48

Can you share its pIC50? I mean this molecule: `O=C(NCc1cc2nc(N3CCCc4cc5c(cc43)OCO5)ccc2cn1)c1ccc2c(c1)S(=O)(=O)CCOC2`
7.86

Can you share its pIC50? I mean this molecule: `Cc1nc2c(cc1F)OCCN2c1ccc2cnc(CNC(=O)c3ccc4c(c3)S(=O)(=O)CCOC4)cc2n1`
7.79

###

Target: BRM (Homo sapiens, UniProt P51531)
Construct: made in house; host or cells: High Five insect cells
Test: ATPase catalytic activity of BRM, ADP-Glo in vitro biochemical assay
Settings: ADP-Glo ATPase assay, 30 nM BRM, 400 μM ATP
READOUT_KIND: IC50 (nM)
The figure you give is taken to be in nM; do not add the unit.

>>> reported("CC(C)c1cccc(-c2ccc3cnc(CNC(=O)c4ccc5c(c4)S(=O)(=O)CCOC5)cc3n2)n1")
59.8
>>> reported("O=C(NCc1cc2nc(-c3cccc(N4CCCC4)n3)ccc2cn1)c1ccc2c(c1)S(=O)(=O)CCOC2")
16
>>> reported("O=C(NCc1cc2nc(N3CCCc4cccc(Cl)c43)ccc2cn1)c1ccc2c(c1)S(=O)(=O)CCOC2")
1140
>>> reported("O=C(NCc1cc2nc(-c3cccc(N4CCCOCC4)n3)ccc2cn1)c1ccc2c(c1)S(=O)(=O)CCOC2")
19
>>> reported("O=C(NCc1cc2cc(-c3cccc(N4CCC4)n3)ccc2cn1)c1cnc2c(c1)S(=O)(=O)CCOC2")
49

Can you share its IC50? I mean this compound: CC1COCc2ccc(C(=O)NCc3cc4nc(-c5cccc(N6CCC6)n5)ccc4cn3)cc2S1(=O)=O (single isomer, unassigned) [Compound 199]
252

Can you share its IC50? I mean this compound: `O=C(NCc1cc2nc(-c3cncc(C4CC4)n3)ccc2cn1)c1cc(Cl)c2c(c1)S(=O)(=O)CCOC2`
109

Can you share its IC50? I mean this compound: `[2H]C1([2H])OC([2H])([2H])[C@H](C)S(=O)(=O)c2cc(C(=O)NCc3cc4nc(-c5cccc(N6C[C@@H](C)O[C@@H](C)C6)n5)ccc4cn3)ccc21`
5.4

Can you share its IC50? I mean this compound: `C[C@H]1CN(c2cccc(-c3ccc4cnc(CNC(=O)c5ccc6c(c5)S(=O)(=O)CCOC6)cc4n3)n2)C[C@H](C)O1`
10.9

Can you share its IC50? I mean this compound: `CO[C@H]1CCN(c2cccc(-c3ccc4cnc(CNC(=O)c5ccc6c(c5)S(=O)(=O)CCOC6)cc4n3)n2)C1`
19.4

Origin of measurements: patent US20230416248A1
